src = patent US10544129B2

experimental_protocol: Solubility study in FaSSIF and SGF (saturated solutions, HPLC)
Type: physicochemical
assay_setup: SGF, simulated gastric fluid, thermodynamic from solid, SGF, 1 h; read-out: Solubility SGF
measurement_name: solubility at 1 h (mg/mL)
Dear colleague, please return just the value in mg/mL, with no unit written.

*Q* Give its solubility at 1 h value. Item: COc1cc(N2CCC(N3CCN(C)CC3)CC2)ccc1Nc1ncc(Cl)c(Nc2ccccc2P(C)(C)=O)n1 [Form CS2, AP26113]
*A* 11.2

----------
experimental_protocol: Solubility study in FaSSIF and SGF (saturated solutions, HPLC)
Format: physicochemical
assay_setup: FaSSIF, thermodynamic from solid, FaSSIF, 1 h; read-out: Solubility FaSSIF
measurement_name: solubility at 1 h (µg/mL)
Numbers only; they are read as µg/mL.

*Q* Endpoint output: solubility at 1 h of COc1cc(N2CCC(N3CCN(C)CC3)CC2)ccc1Nc1ncc(Cl)c(Nc2ccccc2P(C)(C)=O)n1 [Form CS2, AP26113] . Value?
*A* 9900
